species: Rattus norvegicus; assay: Open TG-GATES - Regimen: Single; type: toxicity, organism-based, Sprague-Dawley; design: regimen Single, gender Male, age 6 weeks; conditions: in vivo, po, 0 mg/kg, 24 h, tissue Blood, route gavage, dose level Control
I'd be grateful if you could share measured Bas for these entries.
Please give a number only; it is taken to be in %.

Prompt: What value of Bas has been recorded for this entry: S=C=Nc1cccc2ccccc12 [1-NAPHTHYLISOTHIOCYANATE]
Response: 0.4

Prompt: What value of Bas has been recorded for this entry: Cn1cnc([N+](=O)[O-])c1Sc1ncnc2nc[nH]c12 [AZATHIOPRINE]
Response: 0

Prompt: What value of Bas has been recorded for this entry: Cc1cccc(Nc2cc(Cl)nc(SCC(=O)O)n2)c1C [PIRINIXIC ACID]
Response: 0

Prompt: What value of Bas has been recorded for this entry: C=CCO [ALLYL ALCOHOL]
Response: 0

Prompt: What value of Bas has been recorded for this entry: COc1ccc(O)c(C(C)(C)C)c1.COc1ccc(O)cc1C(C)(C)C [BUTYLATED HYDROXYANISOLE]
Response: 0.2

Prompt: What value of Bas has been recorded for this entry: COc1ccc(Cl)cc1C(=O)NCCc1ccc(S(=O)(=O)NC(=O)NC2CCCCC2)cc1 [GLYBURIDE]
Response: 0.4

Prompt: What value of Bas has been recorded for this entry: Cc1cnc(NC(=O)C2=C(O)c3ccccc3S(=O)(=O)N2C)s1 [MELOXICAM]
Response: 0.6

Prompt: What value of Bas has been recorded for this entry: O=C1CN(/N=C/c2ccc(-c3ccc([N+](=O)[O-])cc3)o2)C(O)=N1 [DANTROLENE]
Response: 0

Prompt: What value of Bas has been recorded for this entry: CS(=O)(=O)Nc1ccc([N+](=O)[O-])cc1Oc1ccccc1 [NIMESULIDE]
Response: 0

Prompt: What value of Bas has been recorded for this entry: CNCCC(Oc1ccc(C(F)(F)F)cc1)c1ccccc1.Cl (configuration not stated) [FLUOXETINE HYDROCHLORIDE]
Response: 0

Prompt: What value of Bas has been recorded for this entry: O=C1NC(=O)C(c2ccccc2)(c2ccccc2)N1 [PHENYTOIN]
Response: 0.4

Prompt: What value of Bas has been recorded for this entry: O=P1(N(CCCl)CCCl)NCCCO1 (configuration not stated) [CYCLOPHOSPHAMIDE ANHYDROUS]
Response: 0

----------
organism: Rattus norvegicus; assay: Open TG-GATES - Regimen: Single; assay type: toxicity, organism-based, Sprague-Dawley; design: regimen Single, gender Male, age 6 weeks; settings: in vivo, po, 0 mg/kg, 9 h, tissue Blood, route gavage, dose level Control
I'd be grateful if you could share measured Hb for these entries.
Please give a number only; it is taken to be in g/dL.

Prompt: What value of Hb has been recorded for this entry: CS(=O)(=O)Nc1ccc([N+](=O)[O-])cc1Oc1ccccc1 [NIMESULIDE]
Response: 13.4

Prompt: What value of Hb has been recorded for this entry: `O=C1CN(/N=C/c2ccc(-c3ccc([N+](=O)[O-])cc3)o2)C(O)=N1`
Response: 13

Prompt: What value of Hb has been recorded for this entry: COc1ccc(O)c(C(C)(C)C)c1.COc1ccc(O)cc1C(C)(C)C [BUTYLATED HYDROXYANISOLE]
Response: 12.9

Prompt: What value of Hb has been recorded for this entry: COc1ccc(Cl)cc1C(=O)NCCc1ccc(S(=O)(=O)NC(=O)NC2CCCCC2)cc1 [GLYBURIDE]
Response: 13

Prompt: What value of Hb has been recorded for this entry: S=C=Nc1cccc2ccccc12 [1-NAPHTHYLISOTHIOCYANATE]
Response: 13.3

Prompt: What value of Hb has been recorded for this entry: `Cc1cnc(NC(=O)C2=C(O)c3ccccc3S(=O)(=O)N2C)s1`
Response: 13.5

Prompt: What value of Hb has been recorded for this entry: `O=C1NC(=O)C(c2ccccc2)(c2ccccc2)N1`
Response: 13.5

Prompt: What value of Hb has been recorded for this entry: `C=CCO`
Response: 13.2

Prompt: What value of Hb has been recorded for this entry: `Cn1cnc([N+](=O)[O-])c1Sc1ncnc2nc[nH]c12`
Response: 12.6
